# reported CC50 at 72 h; entries follow
assay: in vitro; format: cell-based; conditions: human, HepG2 hepatocellular carcinoma cells
Numbered stars: 1 amine (or outer) side, 2 acyl side, 3 side chain; on linkers, the order of the positions; unused ones are H or OH. Square brackets hold non-standard residues; d marks the D form. Peptide text beside a SMILES is read from it. * marks the point of attachment. N(1S-cyclohexylethyl)Gly = C[C@H](NCC(=O)O)C1CCCCC1; N(tridecyl)Gly = CCCCCCCCCCCCCNCC(=O)O; N(4-F-Bzl)Gly = O=C(O)CNCc1ccc(F)cc1; X1 = CC(c1ccccc1)N(CC(=O)[*:2])[*:1]; Gly(N-2-aminoethyl) = NCCNCC(=O)O; Myristoyl = CCCCCCCCCCCCCC(=O)*; NFurfurylGly = O=C(O)CNCc1ccco1; Gly(N(CH2)3NH2) = NCCCNCC(=O)O; Gly(N-cHex) = O=C(O)CNC1CCCCC1; Nphe = O=C(O)CNCc1ccccc1; NPrGly = CCCNCC(=O)O; Nlys = NCCCCNCC(=O)O
Note: unit µg/mL is implicit; provide only the numeric part.

# COMPOUND, CC50 at 72 h [µg/mL]
measured = [
    ("CCCCCCCCCCCCCC(=O)NCC(=O)N(CCC)CC(=O)N(CC(=O)N(CCCCN)CC(=O)N(CC(=O)N(CC(=O)N(CCCN)CC(N)=O)Cc1ccc(F)cc1)Cc1ccco1)C(C)c1ccccc1 (stereo not drawn) [Compound 911-M19] (Myristoyl-G[NPrGly][X1][Nlys][NFurfurylGly][N(4-F-Bzl)Gly][Gly(N(CH2)3NH2)]-NH2)", 106),
    ("CCCCCCCCCCCCCNCC(=O)N(CCC)CC(=O)N(CC(=O)N(CCCCN)CC(=O)N(CC(=O)N(CC(=O)N(CCCN)CC(N)=O)Cc1ccccc1)Cc1ccco1)C1CCCCC1 [Compound 911-M9] (H-[N(tridecyl)Gly][NPrGly][Gly(N-cHex)][Nlys][NFurfurylGly][Nphe][Gly(N(CH2)3NH2)]-NH2)", 99.5),
]

Now let's try a different one.
State, in one line, measured CC50 at 72 h of CCCCCCCCCCCCCC(=O)NCC(=O)N(CCN)CC(=O)N(CC(=O)N(CCCCN)CC(=O)N(CC(=O)N(CC(=O)N(CCCN)CC(N)=O)Cc1ccccc1)Cc1ccco1)[C@@H](C)C1CCCCC1 [Compound 911-M12] (Myristoyl-G[Gly(N-2-aminoethyl)][N(1S-cyclohexylethyl)Gly][Nlys][NFurfurylGly][Nphe][Gly(N(CH2)3NH2)]-NH2)
145
